# measuredTarget: BSA (Bos taurus, UniProt P02769)
# Construct: purchased Millipore Sigma-Aldrich
# Sequence (P02769 25-607): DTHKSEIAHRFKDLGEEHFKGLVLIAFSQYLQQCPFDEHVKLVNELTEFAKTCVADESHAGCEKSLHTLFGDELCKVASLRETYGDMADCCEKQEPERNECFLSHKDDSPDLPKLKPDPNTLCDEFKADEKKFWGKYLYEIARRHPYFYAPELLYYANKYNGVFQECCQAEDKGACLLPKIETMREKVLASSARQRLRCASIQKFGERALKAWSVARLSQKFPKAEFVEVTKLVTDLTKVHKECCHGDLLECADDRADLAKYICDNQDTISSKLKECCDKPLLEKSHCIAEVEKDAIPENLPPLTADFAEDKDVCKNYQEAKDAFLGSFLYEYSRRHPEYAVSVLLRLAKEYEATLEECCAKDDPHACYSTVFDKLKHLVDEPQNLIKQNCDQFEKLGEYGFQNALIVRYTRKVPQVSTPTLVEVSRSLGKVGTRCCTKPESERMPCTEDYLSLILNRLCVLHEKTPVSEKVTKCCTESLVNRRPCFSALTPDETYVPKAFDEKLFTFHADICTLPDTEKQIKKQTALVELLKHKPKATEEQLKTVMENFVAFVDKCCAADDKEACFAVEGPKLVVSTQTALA
# assay: DSC thermal unfolding of BSA in water and aqueous solutions of ABS phase-forming components
# Type: physicochemical, bovine
# details: 1.0 mg/mL BSA, 1 mM component
Label YES when ΔHcal/ΔHvH is at or above 1; anything below gets NO.

Example entries and their recorded answers appear below.
C[N+](C)(C)CCO.C[N+](C)(C)CCO.O=P([O-])(O)O.O=P([O-])(O)O [[N1112(OH)][H2PO4]] | NO
C[N+](C)(C)CCO.O=S(=O)([O-])C(F)(F)C(F)(F)C(F)(F)C(F)(F)F [[N1112(OH)][C4F9SO3]] | NO

Assess whether reported ΔHcal/ΔHvH for "CCn1cc[n+](C)c1.O=S(=O)([O-])C(F)(F)C(F)(F)C(F)(F)C(F)(F)F" sits at 1 or higher.
YES
